Give self-cleavage kobs at 40 uM GlcN6P for every item shown.
B1: glmS ribozyme (parent)
chain: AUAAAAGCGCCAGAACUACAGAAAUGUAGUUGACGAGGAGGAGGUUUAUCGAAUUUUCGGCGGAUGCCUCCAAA

Variants of: B1
protocol-summary: self-cleavage kobs at 40 uM GlcN6P; higher = faster cleavage; RNA array
experimental-context: with glucosamine-6-phosphate
Variants at the floor of the assay were thinned out.
Your answer should be a plain number; it is taken to be in s⁻¹.

Per the records, this variant ( `AUAAAAGCGCCAGAACUACAGAAAUGUAGUUGACGAGGAGGAGGUUUAUCGAGAUUUCGGCGGAUGCCUCCAAA` ) has self-cleavage kobs at 40 uM GlcN6P equal to 0.000851

# self-cleavage kobs at 40 uM GlcN6P (variant: `AUAAAAGCGCCUGAACUACAGAAAUGUAGUUGACGAGGAGGAGGUUUAUCGAAUUUUCGGCGGAUCCCUCCAAA` ) is 6.36e-05

The variant listed as `AUAAAAGCGCUAGAACUACAGAAAUGUAGUUGACGAGGAGGAGGUUUAUCGAAAUUUCGGCGGAUGCCUCCAAA` shows self-cleavage kobs at 40 uM GlcN6P equal to 8.46e-05
